conditions: in methyl acetate, 323.15 K
measured property: solubility (mole fraction)

>>> value_reported("NS(=O)(=O)c1ccccc1")
0.113

====

details: in n-pentanol, 279.15 K
measured property: solubility (mole fraction)

>>> value_reported("NS(=O)(=O)c1ccccc1")
0.00538
